MEASUREMENT TARGET: EGFR exon 20 FQEA Ins A763_V764 (Ba/F3 cells) (Homo sapiens, UniProt P00533, INS763FQEA)
Sequence (P00533 with tags, fused parts or gaps INS763FQEA): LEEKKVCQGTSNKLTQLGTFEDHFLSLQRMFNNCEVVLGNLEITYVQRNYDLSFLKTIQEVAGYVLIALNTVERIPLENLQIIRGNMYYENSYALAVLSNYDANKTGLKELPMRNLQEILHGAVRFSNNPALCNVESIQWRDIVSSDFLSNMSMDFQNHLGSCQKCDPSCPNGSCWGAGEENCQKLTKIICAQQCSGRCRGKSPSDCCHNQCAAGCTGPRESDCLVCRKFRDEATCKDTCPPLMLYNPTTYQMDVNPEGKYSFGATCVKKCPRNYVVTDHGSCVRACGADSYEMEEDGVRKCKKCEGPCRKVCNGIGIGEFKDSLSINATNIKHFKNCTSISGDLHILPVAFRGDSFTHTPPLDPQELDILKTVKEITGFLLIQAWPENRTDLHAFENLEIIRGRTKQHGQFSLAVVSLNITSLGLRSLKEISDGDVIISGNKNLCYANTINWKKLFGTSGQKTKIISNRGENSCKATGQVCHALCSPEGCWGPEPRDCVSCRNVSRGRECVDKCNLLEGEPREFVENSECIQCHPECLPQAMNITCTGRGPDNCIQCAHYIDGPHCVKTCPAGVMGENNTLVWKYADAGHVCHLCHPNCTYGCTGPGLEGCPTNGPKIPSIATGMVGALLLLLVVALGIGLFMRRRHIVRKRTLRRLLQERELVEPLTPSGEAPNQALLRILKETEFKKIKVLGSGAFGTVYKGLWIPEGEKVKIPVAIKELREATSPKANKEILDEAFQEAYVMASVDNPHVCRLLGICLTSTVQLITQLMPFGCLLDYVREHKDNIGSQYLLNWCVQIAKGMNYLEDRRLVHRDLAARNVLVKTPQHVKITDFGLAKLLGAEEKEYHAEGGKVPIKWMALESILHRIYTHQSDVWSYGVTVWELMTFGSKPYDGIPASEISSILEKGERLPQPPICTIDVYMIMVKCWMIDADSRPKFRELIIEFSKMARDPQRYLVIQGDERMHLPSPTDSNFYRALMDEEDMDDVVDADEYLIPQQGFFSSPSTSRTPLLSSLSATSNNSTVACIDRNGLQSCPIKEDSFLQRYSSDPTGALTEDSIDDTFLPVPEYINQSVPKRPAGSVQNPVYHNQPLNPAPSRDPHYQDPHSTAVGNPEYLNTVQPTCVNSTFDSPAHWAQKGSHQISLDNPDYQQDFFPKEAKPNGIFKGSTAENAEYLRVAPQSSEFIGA
TEST PROTOCOL: Inhibitor activity on EGFR-dependent cell growth (CellTiter-Glo, 72 h), Ba/F3 EGFR exon 20 FQEA Ins
TEST SETTINGS: read-out: BaF3 FQEA IC50
pIC50: −log10 of the molar value.
EXPERIMENTAL READOUT: pIC50

>>> recorded_result("COc1c(F)cccc1Nc1c(-c2ccncc2F)[nH]c2c1C(=O)NC[C@@H]2C[C@@H]1COCCO1 [Compound 526]")
"6.00 to 7.00"
>>> recorded_result("COC[C@@H]1CNC(=O)c2c1[nH]c(-c1ccnc3ccc(OC)nc13)c2Nc1cccc(Cl)c1OC (single isomer, unassigned) [Compound 765]")
"> 7.00"
>>> recorded_result("COc1c(Cl)cccc1Nc1c(-c2ccnc(Nc3cnn(C4CCOCC4)c3)n2)[nH]c2c1C(=O)NCC2 [compound 517]")
"6.00 to 7.00"
>>> recorded_result("COc1c(F)cccc1Nc1c(-c2ccnc3ccc(N(C)C)nc23)[nH]c2c1C(=O)NCC2 [Compound 697]")
"> 7.00"
>>> recorded_result("COc1c(F)cccc1Nc1c(-c2ccncn2)[nH]c2c1C(=O)NC[C@H]2C[C@@H]1COCCO1 [Compound 569]")
"> 7.00"
>>> recorded_result("Nc1nccc(-c2[nH]c3c(c2Nc2cccc(F)c2OC(F)F)C(=O)NCC3)n1 [compound 299]")
"6.00 to 7.00"
>>> recorded_result("COCC[C@H]1CNC(=O)c2c1[nH]c(-c1ccnc(N)n1)c2Nc1cccc(Cl)c1OC [Compound 727]")
"> 7.00"
